System: Solute carrier organic anion transporter family member 1B3 (OATP1B3) (Homo sapiens, UniProt Q9NPD5)
Sequence (Q9NPD5 whole entry): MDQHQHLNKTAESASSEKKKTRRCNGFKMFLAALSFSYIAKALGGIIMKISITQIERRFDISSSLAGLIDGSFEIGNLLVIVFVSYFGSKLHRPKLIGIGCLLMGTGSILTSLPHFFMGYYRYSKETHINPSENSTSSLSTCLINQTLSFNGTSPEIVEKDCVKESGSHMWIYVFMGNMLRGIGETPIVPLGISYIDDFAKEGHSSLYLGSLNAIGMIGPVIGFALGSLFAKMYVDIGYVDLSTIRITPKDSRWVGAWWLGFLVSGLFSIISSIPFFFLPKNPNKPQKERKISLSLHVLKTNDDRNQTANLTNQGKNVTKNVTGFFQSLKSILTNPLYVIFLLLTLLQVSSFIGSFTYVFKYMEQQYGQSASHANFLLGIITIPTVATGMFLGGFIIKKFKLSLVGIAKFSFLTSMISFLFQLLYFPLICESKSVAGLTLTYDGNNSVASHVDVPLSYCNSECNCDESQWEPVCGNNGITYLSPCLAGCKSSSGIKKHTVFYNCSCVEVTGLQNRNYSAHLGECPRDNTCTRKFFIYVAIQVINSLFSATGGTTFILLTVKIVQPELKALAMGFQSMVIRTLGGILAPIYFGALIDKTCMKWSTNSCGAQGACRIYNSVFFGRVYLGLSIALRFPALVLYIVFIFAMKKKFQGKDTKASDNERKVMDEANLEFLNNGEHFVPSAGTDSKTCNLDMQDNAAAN
Assay Info: TP_TRANSPORTER: inhibition of E1S uptake (E1S: 0.05 uM, GL: 100 uM) in Xenopus laevis oocytes
Format: functional, cell-based, Oocyte
Parameters: scale not given: the % may be the effect or the level left
Stated Conditions: Xenopus laevis oocytes expressing OATP1B3, probe E1S (0.05 uM), read-out: Activity
Measurement Type: activity at 100 µM

• CC1(C)[C@@H](O[C@H]2O[C@H](C(=O)O)[C@@H](O)[C@H](O)[C@H]2O[C@@H]2O[C@H](C(=O)O)[C@@H](O)[C@H](O)[C@H]2O)CC[C@]2(C)[C@H]3C(=O)C=C4[C@@H]5C[C@@](C)(C(=O)O)CC[C@]5(C)CC[C@@]4(C)[C@]3(C)CC[C@@H]12 = 0%

###

System: Solute carrier organic anion transporter family member 1A5 (OATP1A5) (Rattus norvegicus, UniProt O88397)
Sequence (O88397 whole entry): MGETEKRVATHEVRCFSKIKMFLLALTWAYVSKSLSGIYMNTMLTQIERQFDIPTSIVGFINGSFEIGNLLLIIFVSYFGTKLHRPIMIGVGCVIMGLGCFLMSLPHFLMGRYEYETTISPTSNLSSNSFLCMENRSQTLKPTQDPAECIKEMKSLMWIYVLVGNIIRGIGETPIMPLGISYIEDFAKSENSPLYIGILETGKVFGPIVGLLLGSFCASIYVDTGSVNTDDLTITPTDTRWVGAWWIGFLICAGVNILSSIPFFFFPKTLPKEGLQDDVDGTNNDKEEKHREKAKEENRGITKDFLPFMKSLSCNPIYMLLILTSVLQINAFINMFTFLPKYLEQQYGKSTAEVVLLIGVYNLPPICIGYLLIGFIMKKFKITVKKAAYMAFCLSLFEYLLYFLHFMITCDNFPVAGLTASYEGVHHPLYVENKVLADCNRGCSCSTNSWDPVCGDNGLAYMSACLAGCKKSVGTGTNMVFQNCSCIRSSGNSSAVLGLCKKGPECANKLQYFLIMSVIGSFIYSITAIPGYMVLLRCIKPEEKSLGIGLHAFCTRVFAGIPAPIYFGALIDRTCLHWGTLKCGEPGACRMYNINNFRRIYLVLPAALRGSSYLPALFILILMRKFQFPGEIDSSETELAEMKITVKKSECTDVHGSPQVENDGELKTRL
Assay Info: TP_TRANSPORTER: inhibition of E1S uptake (E1S: 0.05 uM, GL: 100 uM) in Xenopus laevis oocytes
Assay type: functional, cell-based, Oocyte
Parameters: scale not given: the % may be the effect or the level left
Stated Conditions: Xenopus laevis oocytes expressing OATP1A5, probe E1S (0.05 uM), read-out: Activity
Measurement Type: activity at 100 µM (%)

* CC1(C)[C@@H](O[C@H]2O[C@H](C(=O)O)[C@@H](O)[C@H](O)[C@H]2O[C@@H]2O[C@H](C(=O)O)[C@@H](O)[C@H](O)[C@H]2O)CC[C@]2(C)[C@H]3C(=O)C=C4[C@@H]5C[C@@](C)(C(=O)O)CC[C@]5(C)CC[C@@]4(C)[C@]3(C)CC[C@@H]12 | 51

The measurements presented in this section are drawn from ChEMBL document CHEMBL2074181.
